The reported measurements were obtained from patent US11702418B2.

Biological target: recombinant human SOS1 polypeptide (amino acids 560-1049) (Homo sapiens (Human), UniProt Q07889)
Sequence (Q07889 560-1049): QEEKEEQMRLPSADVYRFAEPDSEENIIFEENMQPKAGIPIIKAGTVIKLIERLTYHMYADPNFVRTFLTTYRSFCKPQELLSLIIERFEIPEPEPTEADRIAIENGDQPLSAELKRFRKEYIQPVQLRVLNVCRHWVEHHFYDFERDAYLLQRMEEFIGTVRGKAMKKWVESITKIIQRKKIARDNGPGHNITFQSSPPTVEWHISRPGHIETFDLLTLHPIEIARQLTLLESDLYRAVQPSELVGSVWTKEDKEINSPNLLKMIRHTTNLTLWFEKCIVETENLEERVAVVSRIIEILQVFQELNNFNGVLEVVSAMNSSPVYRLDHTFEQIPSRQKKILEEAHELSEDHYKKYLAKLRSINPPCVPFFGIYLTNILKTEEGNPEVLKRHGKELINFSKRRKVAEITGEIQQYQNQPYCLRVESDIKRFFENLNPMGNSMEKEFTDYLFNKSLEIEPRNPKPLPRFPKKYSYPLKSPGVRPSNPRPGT
Assay: biochemical
Type: binding
Conditions: HTRF displacement, Cy5 labelled tracer, Morrison equation for competitive binding; read-out: Ki, Inhibition of Labeled Tracer Binding to SOS1
observation_type: pKi
Give bare numbers, as −log10 of the molar value.

Quick batch: pKi for everything below.
1. Cc1c(F)cccc1[C@@H](C)Nc1nnc(C)c2cnc(N3CC(C)(O)C3)cc12
2. Cc1c([C@@H](C)Nc2nnc(C)c3ccc(C4CCNC(=O)C4)cc23)cccc1C(F)(F)F (some centres unmarked)
3. CNCc1c(F)cccc1-c1ccc([C@@H](C)Nc2nnc(C)c3ccc(N4CCOCC4)cc23)s1
4. Cc1cc(F)ccc1[C@@H](C)Nc1nnc(C)c2cnc(N3CC4CC(C3)O4)cc12

Found:
[7.54, 9.15, 9.96, 7.36]

Look up pKi for the entries below, preserving their order.
1. Cc1c([C@@H](C)Nc2nnc(C)c3cnc(N4CC(N(C)C)C4)cc23)cccc1C(F)(F)F
2. Cc1nnc(N[C@H](C)c2cc(F)cc(C(F)(F)F)c2)c2cc(N3CCOCC3)ccc12
3. Cc1nnc(N[C@H](C)c2cccc(F)c2F)c2cc(N3CCN4CCOC[C@@H]4C3)ncc12
4. Cc1c(C#N)cccc1[C@@H](C)Nc1nnc(C)c2ccc(N3CC4(CCCN4C)C3)cc12
5. Cc1c(C#N)cc(F)cc1[C@@H](C)Nc1nnc(C)c2cnc(N3CCC(C)(N(C)C)CC3)cc12
6. Cc1c([C@@H](C)Nc2nncc3ccc(N4CCC5C4CCCN5C)cc23)cccc1C(F)(F)F (some centres unmarked)
7. Cc1c(C#N)cccc1[C@@H](C)Nc1nnc(C)c2cnc(N3CCC(N4CCC4)CC3)cc12
8. Cc1cc(F)ccc1[C@@H](C)Nc1nnc(C)c2cnc(N3CC(C)(O)C3)cc12

Found:
8.80
8.43
7.85
8.70
8.21
9.30
8.78
7.04

Hi there! I need pKi for each item below, if you can.
1. Cc1nnc(N[C@H](C)c2cccc(C(F)F)c2F)c2cc(N3C[C@H]4C[C@@H]3CO4)ncc12
2. Cc1c([C@@H](C)Nc2nnc(C)c3cnc(N4CC5(CCN(C)C5)C4)cc23)cccc1C(F)(F)F
3. Cc1c(C#N)cccc1[C@@H](C)Nc1nnc(C)c2cnc(N3C[C@H]4CC[C@@H]3CN4C)cc12

Found:
[9.03, 9.34, 9.19]

Batch lookup, pKi per entry.
1. Cc1c([C@@H](C)Nc2nnc(C)c3ccc(N4CCOCC4)cc23)cc(F)cc1C(F)(F)F
2. Cc1c([C@@H](C)Nc2nncc3ccc(N4CC(=O)N(C)CC4C)cc23)cccc1C(F)(F)F (some centres unmarked)
3. Cc1c([C@@H](C)Nc2nnc(C)c3ccc(O[C@H]4CCOC4)cc23)cc(N)cc1C(F)(F)F
4. Cc1c([C@@H](C)Nc2nnc(C)c3ccc(N4CC[C@H](N(C)C)C(F)(F)C4)cc23)cccc1C(F)(F)F
5. Cc1c([C@@H](C)Nc2nnc(C)c3ccc(N4CCN5C(=O)CC[C@@H]5C4)cc23)cccc1C(F)(F)F
6. Cc1c(C#N)cccc1[C@@H](C)Nc1nnc(C)c2cnc(N3CC4(CCOC4)C3)cc12
7. Cc1c(C#N)cccc1[C@@H](C)Nc1nnc(C)c2cnc(N3CC4(COCCN4C)C3)cc12

Found:
1. 8.50
2. 8.94
3. 9.03
4. 9.03
5. 9.40
6. 8.35
7. 8.36
